test system: ULK1; conditions: concentration: 1 μM, replicates: in singlicate; n = 1;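 further: KINOMEscan kinase panel screen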
Use 10% as the dividing line for %Inh, with the line itself on the y side and lower values as n.

Tell me whether %Inh is at least 10% here: Cl.Cl.NC(CNC(=O)c1cc(Br)c(-c2ccnc3[nH]ccc23)s1)c1ccccc1 (centres unmarked) [GSK1322949]
y

Check CN(c1ccc2c(c1)nc(NCc1ccccc1)n2C)c1ccnc(Nc2ccc(CS(C)(=O)=O)cc2)n1.Cl [GW811603] too.
n

What do you get for CN(C)CCNS(=O)(=O)c1ccc(-c2ccnc3[nH]ccc23)cc1 [GSK977620] ?
y

Also need COc1cccc(C2=C(Nc3cccc(O)c3)C(=O)NC2=O)c1 [SB-390771] , thanks.
y

Would you kindly repeat that for Cn1cc(-c2ccc3c(c2)CCN3C(=O)Cc2cc(F)cc(F)c2F)c2c(N)ncnc21 [GSK2634140] ?
y

Lookup Nc1ncnc2scc(-c3ccc(NC(=O)Cc4cc(F)ccc4F)cc3)c12.O=C(O)C(F)(F)F [SB-731254-M]
y

One more compound: COc1cccc(NC(=O)NCCNc2ccnc(Nc3ccc(F)cc3)n2)c1 [GSK1379879]
y

Same question, Cc1ccc(NC(=O)c2ccc(Cl)c(Cl)c2)cc1-c1ccc(C(=O)Nc2ccncc2)cc1 [GSK1398460] this time
y

Same for CN(C)CCOc1ccc(-c2cc(-c3ccc(Cl)c(O)c3)c(-c3ccncc3)[nH]2)cc1.Cl.Cl [SB-684387]
n

// same read-out, input: CN1CCN(Cc2ccc(NC(=O)Nc3ccc(N(C)c4ccnc(Nc5ccc(CS(C)(=O)=O)cc5)n4)cc3)cc2)CC1.Cl [GW827654]
n

Moving on to the next compound: COc1cc(Nc2nccc(N3CCC(NC(=O)Nc4ccc5c(c4)OCO5)C3)n2)cc(OC)c1OC (centres unmarked) [GSK1379766]
y

====

test system: KIT; details: concentration: 1 μM, replicates: in singlicate; n = 1
attribute.measured: %Inh
Please append the unit to your numeric answer.

For the compound shown here, `COc1ccc(NC(=O)c2ccoc2)cc1-c1ccc(C(=O)NCC2CC2)cc1` , give the reported %Inh.
0%

Again, but for `Cc1ccc(C)c(NC(=O)Nc2ccc(C)c(-c3ccc(C(=O)Nc4ccncc4)cc3)c2)c1`
99.9%

Record: `Cc1ccc(NC(=O)c2ccnc(N3CCCCC3)c2)cc1-c1ccc(C(=O)NCC2CC2)cc1`
87%

Also check `COC(=O)Nc1nc2ccc(Oc3ccc(NC(=O)Nc4cc(C(F)(F)F)ccc4F)cc3)cc2[nH]1.Cl`
100%

Moving on to `CSc1ccc(NC2=C(c3ccc(Cl)cc3)C(=O)NC2=O)cc1`
29%

Another compound to check: `Nc1cccc(-c2ccc3c(N)n[nH]c3c2)c1`
23%

====

system: RSK1(Kin.Dom.1-N-terminal); construct: gene RPS6KA1; conditions: concentration: 1 μM, replicates: in singlicate; n = 1
attribute.measured: %Inh (%)
Express the result in % but write the number alone.

Fill blank: measured %Inh of the compound `Cc1ccccc1CC(=O)N1CCc2cc(-c3cn(C)c4ncnc(N)c34)ccc21` is ____.
0

Note, next up: `c1ccc(Oc2ccc(Nc3ccnc4cc(-c5ccc(CN6CCCCC6)o5)ccc34)cc2)nc1`
22

How about `O=C(O)C(F)(F)F.O=c1[nH]ccc2nc(N[C@@H]3CCNC3)nc(Nc3cc(Cl)cc(Cl)c3)c12` ?
96.7

Same read-out for Cc1ccc(-c2ccc3occ(-c4ccc(S(C)=O)cc4)c3c2)nn1 (centres unmarked) ?
0

Also need `O=C(Nc1n[nH]c2nc(-c3cccc(O)c3)ccc12)C1CC1` , thanks.
0

====

system: STK33; settings: concentration: 1 μM, replicates: in singlicate; n = 1
attribute.measured: %Inh (%)
Report the figure in % without appending any unit label.

%Inh lookup needed for `Nc1ncc(-c2ccc3nccc(-c4ccncc4)c3c2)cc1S(=O)(=O)N1CCCCC1` , thanks.
55

Another compound: `CC(=O)Nc1cn2nc(Oc3cccc(NC(=O)c4cccc(C(F)(F)F)c4)c3)ccc2n1`
3

Entry `CSc1ccc(NC2=C(c3ccc(Cl)cc3)C(=O)NC2=O)cc1` please
0

And then `COc1ccc(C2=C(Nc3cccc(O)c3)C(=O)NC2=O)cc1` , what is it?
100

Item: `O=C1NC(=O)C(c2ccccc2Cl)=C1Nc1cccc(Cl)c1`
0

Another compound to look at: `CCNc1nccc(-c2c(-c3ccc(F)cc3)ncn2C2CCN(C)CC2)n1`
2

Another compound: `O=C(Nc1n[nH]c2nc(-c3cccc(O)c3)ccc12)C1CC1`
0

Now consider `Cn1cc(-c2ccc3c(c2)CCN3C(=O)Cc2cc(F)cc(F)c2F)c2c(N)ncnc21` and answer again.
0

Same for `O=C(Nc1n[nH]c2cc(-c3cccs3)ccc12)C1CC1`
0

And then `CC(C)c1nc(-c2cccc(NS(=O)(=O)c3c(F)cccc3F)c2)c(-c2ccnc(Nc3ccc(N4CCOCC4)nc3)n2)s1.Cl` , what is it?
62

Do the same for `N#CC1(c2cccc(C(=O)Nc3cccc(Oc4ccc5nc(NC(=O)C6CC6)sc5n4)c3)c2)CC1` please
16

Now give it for `COc1ccc(NC(=O)c2ccoc2)cc1-c1ccc(C(=O)NCC2CC2)cc1` too.
0

What do we get for `Fc1cc(Cl)ccc1Nc1ccnc2cc(-c3ccc(CN4CCSCC4)o3)ccc12` ?
20

// repeat for `CN(C)c1ncnc2nc[nH]c12` and report
0

How about `COc1cccc(NC(=O)NCCNc2ccnc(Nc3ccc(F)cc3)n2)c1` ?
0

Ok, now `COC(=O)Nc1nc2cc(Oc3ccc(NC(=O)Nc4cccc(SC)c4)cc3)ccc2[nH]1.Cl`
0

Also `CCn1c(-c2nonc2N)nc2c(-c3ccccc3)ncc(OCCCN)c21.O=C(O)C(F)(F)F.O=C(O)C(F)(F)F` ?
0

Field entry: `Nc1cccc(-c2ccc3c(N)n[nH]c3c2)c1`
0

Param item: `Cc1ccccc1CC(=O)N1CCc2cc(-c3cn(C)c4ncnc(N)c34)ccc21`
3

What about this compound? `CN1CCN(Cc2ccc(NC(=O)Nc3ccc(N(C)c4ccnc(Nc5ccc(CS(C)(=O)=O)cc5)n4)cc3)cc2)CC1.Cl`
0

Next compound: `CC(C)(C)c1ccc(C(=O)Nc2cn3cc(-n4ccnc4)ccc3n2)cc1`
0

Query NCCC(NC(=O)c1cc(Br)c(-c2ccnc3[nH]ccc23)s1)c1ccccc1.O=C(O)C(F)(F)F.O=C(O)C(F)(F)F (stereo not shown) next
90

Next: `COc1cc(Nc2ccnc3cc(-c4ccncc4)ccc23)cc(OC)c1OC.Cl`
0

Can you check `Cn1cc(-c2cnc(N)c3c(-c4ccc5c(c4)CCN5C(=O)Cc4ccccc4)csc23)cn1` next?
0

What do you get for `Cc1cc(-c2c(-c3ccc(F)cc3)ncn2CCCN2CCOCC2)nc(N)n1` ?
0

Also, `CN(c1ccc(F)c(NC(=O)c2cccc(OC(C)(C)C#N)c2Cl)c1)c1ccc2nc(NC(=O)C3CC3)sc2n1` please.
0

What about Cl.Cl.NCC(NC(=O)c1cc(-c2cccnc2)c(-c2ccnc3[nH]ccc23)s1)c1ccccc1 (stereo not shown) ?
18

Please give the result for `Cc1ccc(O)cc1Nc1ccnc2cc(-c3ccc(CN4CCCCC4)o3)ccc12` too.
61

Moving on to `CCNC(=O)/C=C/c1n[nH]c2cc(Sc3ccccc3C(=O)NC)ccc12`
0

Please give the result for `c1ccc(Oc2ccc(Nc3ccnc4cc(-c5ccc(CN6CCCCC6)o5)ccc34)cc2)nc1` too.
99.9

Same lookup for `COc1cccc(-c2nc(-c3ccccc3)[nH]c2-c2ccncc2)c1` , please.
5

Now consider `N#Cc1cnc2cc(-c3cnc(CNCCN4CCOCC4)s3)ccc2c1Nc1ccc(Oc2ccccc2)cc1` .
2

Also, `CN(c1ccc(NC(=O)Nc2cccc(Cl)c2)cc1)c1ccnc(N)n1.Cl` please.
2

Same read-out for `CCOc1nccc(-c2c(-c3ccc(F)cc3)ncn2C2CCNCC2)n1` ?
4

====

Consider the following compounds; for each one, report its %Inh.
test system: MARK1; settings: concentration: 1 μM, replicates: in singlicate; n = 1
Field format: number, assumed %, no unit text.

Give the measured %Inh of `O=C(Nc1n[nH]c2nc(-c3ccccc3O)ccc12)C1CC1` .
0

Can you handle `Nc1ncc(-c2cn[nH]c2)c2scc(-c3ccc4c(c3)CCN4C(=O)Cc3ccccc3)c12` next?
0

Also `COc1cccc(NC(=O)NCCNc2ccnc(Nc3ccc(F)cc3)n2)c1` , if possible.
0

Please give the result for `COc1cc(Nc2nccc(N3CCC(NS(=O)(=O)c4ccc(NC(C)=O)cc4)CC3)n2)cc(OC)c1OC` too.
14

Continue with CC(C)NCC(Cc1ccccc1)NC(=O)c1cc(Br)c(-c2ccnc3[nH]ccc23)s1.Cl.Cl (centres unmarked)
11

What about `CN1CCN(Cc2ccc(NC(=O)Nc3ccc(N(C)c4ccnc(Nc5ccc(CS(C)(=O)=O)cc5)n4)cc3)cc2)CC1.Cl` ?
32

Entry to check: `O=C(Nc1n[nH]c2cc(-c3cccs3)ccc12)C1CC1`
47

Do the same for `COC(=O)Nc1nc2cc(Oc3ccc(NC(=O)Nc4cccc(SC)c4)cc3)ccc2[nH]1.Cl` please
0

Again, but for `Nc1cccc(-c2ccc3c(N)n[nH]c3c2)c1`
0

// query: `COc1cccc2c(-c3ccncc3)c(-c3ccc(F)cc3)nn12`
0

Try this compound too: `Cl.O=C(Nc1ccc(Oc2ccc3[nH]c(NC(=O)c4ccco4)nc3c2)cc1)Nc1cc(C(F)(F)F)ccc1F`
0

Same question, `CSc1ccc(NC2=C(c3ccc(Cl)cc3)C(=O)NC2=O)cc1` this time
3

Item: `Fc1cc(Cl)ccc1Nc1ccnc2cc(-c3ccc(CN4CCOCC4)o3)ccc12`
0

// repeat for `COc1cccc(CC(=O)N2CCc3cc(-c4cn(C)c5ncnc(N)c45)ccc32)c1` and report
0

Do the same for `CN(C)CCNS(=O)(=O)c1ccc(-c2ccnc3[nH]ccc23)cc1` please
8

Same question for `O=C(O)C(F)(F)F.O=c1[nH]ccc2nc(N[C@@H]3CCNC3)nc(Nc3ccc4c(c3)S(=O)(=O)CC4)c12` please.
65

Another compound: `CC(C)(C)c1ccc(C(=O)Nc2cn3cc(-n4ccnc4)ccc3n2)cc1`
0

Where do the numbers come from? From paper PMC5540273.
